Data origin, for the record: patent US20160257732A1

Each record here notes measured Neutralization IC50, H2-MO06.
# tested-on: HA of ca A/swine/Missouri/06 (H2N3) (influenza A virus)
# assay-comment: cell-based or functional assay

>  <binder>
Antibody 15 (antibody, V domains shown) VH: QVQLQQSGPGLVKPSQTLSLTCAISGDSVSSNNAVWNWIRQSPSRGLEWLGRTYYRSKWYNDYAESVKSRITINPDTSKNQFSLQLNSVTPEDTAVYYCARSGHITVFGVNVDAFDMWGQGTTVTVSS VL: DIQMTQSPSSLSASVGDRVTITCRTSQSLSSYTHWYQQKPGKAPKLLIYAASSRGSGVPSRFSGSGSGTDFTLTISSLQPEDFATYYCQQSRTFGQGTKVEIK

>  <Neutralization IC50, H2-MO06>
0.83 µg/mL

$$$$
>  <binder>
Antibody 13 (antibody, V domains shown) VH: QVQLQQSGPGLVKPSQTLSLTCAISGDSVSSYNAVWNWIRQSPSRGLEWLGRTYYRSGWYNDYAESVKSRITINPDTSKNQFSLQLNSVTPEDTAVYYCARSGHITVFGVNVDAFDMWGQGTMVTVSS VL: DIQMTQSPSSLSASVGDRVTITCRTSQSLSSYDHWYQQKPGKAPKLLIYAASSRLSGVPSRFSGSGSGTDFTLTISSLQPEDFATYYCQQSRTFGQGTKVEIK

>  <Neutralization IC50, H2-MO06>
0.57 µg/mL

$$$$
>  <binder>
Antibody 14 (antibody, V domains shown) VH: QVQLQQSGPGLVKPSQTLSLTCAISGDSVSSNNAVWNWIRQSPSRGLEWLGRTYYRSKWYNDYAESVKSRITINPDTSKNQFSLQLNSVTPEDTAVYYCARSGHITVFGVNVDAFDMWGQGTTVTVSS VL: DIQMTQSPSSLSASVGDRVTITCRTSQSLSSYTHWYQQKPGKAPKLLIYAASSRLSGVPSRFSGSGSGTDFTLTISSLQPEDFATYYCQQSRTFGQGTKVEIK

>  <Neutralization IC50, H2-MO06>
0.65 µg/mL

$$$$
